We begin with a simple list: items and their reported EC50.
Biological target: Orexin/Hypocretin receptor type 1 (Homo sapiens)
Sequence (O43613 whole entry): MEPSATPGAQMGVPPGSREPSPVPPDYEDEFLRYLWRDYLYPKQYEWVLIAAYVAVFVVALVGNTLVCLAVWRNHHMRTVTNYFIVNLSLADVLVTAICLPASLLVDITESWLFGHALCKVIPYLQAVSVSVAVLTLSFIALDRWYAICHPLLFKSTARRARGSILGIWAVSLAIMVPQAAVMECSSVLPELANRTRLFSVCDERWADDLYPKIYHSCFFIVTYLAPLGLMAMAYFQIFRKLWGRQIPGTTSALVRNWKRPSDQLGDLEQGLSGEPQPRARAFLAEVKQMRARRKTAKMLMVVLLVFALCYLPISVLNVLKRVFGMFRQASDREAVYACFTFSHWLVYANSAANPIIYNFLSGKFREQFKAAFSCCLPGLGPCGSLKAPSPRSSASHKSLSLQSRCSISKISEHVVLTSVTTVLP
Assay: Agonist activity at OX1R (unknown origin) expressed in CHO cells by cell-based calcium assay

smiles_str | EC50
COc1ccc(-c2cccc(C(=O)N(C)C)c2)cc1S(=O)(=O)Nc1ccc2ccc(N(C)C(=O)c3ccccc3)cc2c1 | > 10 µM
COc1ccccc1C(=O)N(C)c1cccc2ccc(NS(=O)(=O)c3cc(-c4cccc(C(=O)N(C)C)c4)ccc3OC)cc12 | > 10 µM
COc1ccc(-c2cccc(C(=O)N(C)C)c2)cc1S(=O)(=O)Nc1ccc2ccc(NC(=O)c3ccccc3)cc2c1 | > 10 µM
